Measured values drawn from patent EP4700025A1 for this set.

ASSAY_PROTOCOL: Pharmacokinetic assay in mice
Format: in vivo, Balb/c mice
MEASUREMENT_CONDITIONS: mouse, PO 10mpk vs IV 2mpk
MEASURED_PARAMETER: F (%)

Record excerpt, results attached:
Cn1ncc2c(N)nc3cc(F)c(C(=O)N4CCOC[C@@H]4c4ccc5c(c4)OC(F)(F)O5)cc3c21 = 159.9
CN(Cc1ccc2c(c1)OC(F)(F)O2)C(=O)c1cc2c(cc1F)nc(N)c1cnn(C)c12 = 64.7

1. CCN(Cc1ccc2c(c1)OC(F)(F)O2)C(=O)c1ccc2nc(N)c3cnn(C)c3c2c1
2. Cn1ncc2c(N)nc3cc(F)c(C(=O)N(Cc4ccc5c(c4)OC(F)(F)O5)C4CC4)cc3c21
[Q] Would you kindly point out which of 1 and 2 has the smaller F figure? Refer to your chosen entry by its label in the reply.
[A] 1
(1: 68.6%, 2: 108%)
